- study target: T1, human TIGIT-Fc (human, UniProt Q495A1 22-141, limits assumed)
- T1 construct: not shown: Fc; not described
- T1 sequence (looked up): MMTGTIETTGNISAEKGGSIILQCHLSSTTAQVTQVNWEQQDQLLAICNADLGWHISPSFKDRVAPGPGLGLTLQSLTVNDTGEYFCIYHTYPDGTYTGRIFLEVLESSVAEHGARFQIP
- experiment description: CD155 competition ELISA, titration
value kind: pEC50
Scale: negative log10 of molar concentration, which is what pEC50 denotes.

- binder: "TIGIT-SC193 (Fc fusion, VHH-Fc) VHH: EVQLVESGGGLVQPGGSLRLSCAASGFTFSDYWMGWFRQAPGKEREFVAAISRSGTLKAYADSVKGRFTISADNSKNTAYLQMNSLKPEDTAVYYCARGSGWPKIHFDYWGQGTLVTVSS"
  reported result: 8.36
- binder: "TIGIT-SC67 (Fc fusion, VHH-Fc) VHH: EVQLVESGGGLVQPGGSLRLSCAASGFTFDRSWMGWFRQAPGKEREWVSTIYSNGTPAYADSVKGRFTISADNSKNTAYLQMNSLKPEDTAVYYCARRGLPSYSYGMDVWGQGTLVTVSS"
  reported result: 8.91
- binder: "TIGIT-SC36 (Fc fusion, VHH-Fc) VHH: EVQLVESGGGLVQPGGSLRLSCAASGNTFNFNVMGWFRQAPGKEREAVASIWRSGGNTYYADSVKGRFTISADNSKNTAYLQMNSLKPEDTAVYYCARDLEWRPYYMDVWGQGTLVTVSS"
  reported result: 8.68

For TIGIT-SC57 (Fc fusion, VHH-Fc) VHH: EVQLVESGGGLVQPGGSLRLSCAASGNTFSGGFMGWFRQAPGKEREWVASVLRGGYTWYADSVKGRFTISADNSKNTAYLQMNSLKPEDTAVYYCTTYRGWGQGTLVTVSS the binder record lists pEC50 as 8.82
